Entry source: patent US6603023B2

System: CCRF-CEM human T-cell acute lymphoblastic leukemia cell line
Assay: XTT cytotoxicity (cell growth inhibition), CCRF-CEM
Conditions: Table 7; CEM; listed as synthetic epothilone B
Quantity measured: IC50 (nM)
Report only the number, with the unit nM understood.

For record C/C(=C\c1csc(C)n1)[C@@H]1C[C@@H]2O[C@]2(C)CCC[C@H](C)[C@H](O)[C@@H](C)C(=O)C(C)(C)[C@@H](O)CC(=O)O1 the listed IC50 is 0.82

====

System: CCRF-CEM/VBL100
Experiment: cells
Assay type: cell-based, human
Conditions: read-out: IC50
Reported log10 of IC50 by item:
Give log10 of IC50, with IC50 taken in nM.

Check out these entries, answers already filled in.
{"Compound": "C/C(=C\\c1csc(C)n1)[C@@H]1C[C@@H]2O[C@@H]2CCC[C@H](C)[C@H](O)[C@@H](C)C(=O)C(C)(C)[C@@H](O)CC(=O)O1", "Assay result": 1.30}
{"Compound": "CC/C1=C/C[C@@H](/C(C)=C/c2csc(C)n2)OC(=O)C[C@H](O)C(C)(C)C(=O)[C@H](C)[C@@H](O)[C@@H](C)CCC1", "Assay result": 1.89}
{"Compound": "CCC[C@@]12CCC[C@H](C)[C@H](O)[C@@H](C)C(=O)C(C)(C)[C@@H](O)CC(=O)O[C@H](/C(C)=C/c3csc(C)n3)C[C@@H]1O2", "Assay result": 1.72}
{"Compound": "CCC/C1=C\\C[C@@H](/C(C)=C/c2csc(C)n2)OC(=O)C[C@H](O)C(C)(C)C(=O)[C@H](C)[C@@H](O)[C@@H](C)CCC1", "Assay result": 2.40}
{"Compound": "C/C(=C\\c1csc(C)n1)[C@@H]1C/C=C\\CCC[C@H](C)[C@H](O)[C@@H](C)C(=O)C(C)(C)[C@@H](O)CC(=O)O1", "Assay result": 1.08}
{"Compound": "CC1=CCC(C(C)=Cc2csc(C)n2)OC(=O)CC(O)C(C)(C)C(=O)C(C)C(O)C(C)CCC1 (stereo not shown)", "Assay result": 2.42}

The record that follows has no log10 of IC50 shown yet.
Form: compound = CCC1=CCC(C(C)=Cc2csc(C)n2)OC(=O)CC(O)C(C)(C)C(=O)C(C)C(O)C(C)CCC1 (stereo not shown) ; log10 of IC50 = 2.29
